Ref: ChEMBL document CHEMBL1649521

Assay Overview: Apparent oral clearance in patient with HIV infection at 600 mg/kg, […] QD
Assay type: ADME, organism-based
Design: dose 600 mg/kg, route oral
Assay Conditions: human, in vivo
Property: CL/F (mL/min)
Numbers only here, please. The scale is mL/min.

Given the entry O=C1Nc2ccc(Cl)cc2[C@@](C#CC2CC2)(C(F)(F)F)O1 , report its measured CL/F.
154

* * *

Assay Overview: Apparent oral volume of distribution in patient with HIV infection at 600 mg/kg QD
Assay type: ADME, organism-based
Design: dose 600 mg/kg, route oral
Assay Conditions: human, in vivo, read-out: Vc/F
Property: Vd/F (L)
Numbers only here, please. The scale is L.

Given the entry O=C1Nc2ccc(Cl)cc2[C@@](C#CC2CC2)(C(F)(F)F)O1 , report its measured Vd/F.
295
